P-gp ER ratio by entry:
Target: P-gp (human MDR1-expressing cells) (Homo sapiens (Human))
Sequence (P08183 whole entry): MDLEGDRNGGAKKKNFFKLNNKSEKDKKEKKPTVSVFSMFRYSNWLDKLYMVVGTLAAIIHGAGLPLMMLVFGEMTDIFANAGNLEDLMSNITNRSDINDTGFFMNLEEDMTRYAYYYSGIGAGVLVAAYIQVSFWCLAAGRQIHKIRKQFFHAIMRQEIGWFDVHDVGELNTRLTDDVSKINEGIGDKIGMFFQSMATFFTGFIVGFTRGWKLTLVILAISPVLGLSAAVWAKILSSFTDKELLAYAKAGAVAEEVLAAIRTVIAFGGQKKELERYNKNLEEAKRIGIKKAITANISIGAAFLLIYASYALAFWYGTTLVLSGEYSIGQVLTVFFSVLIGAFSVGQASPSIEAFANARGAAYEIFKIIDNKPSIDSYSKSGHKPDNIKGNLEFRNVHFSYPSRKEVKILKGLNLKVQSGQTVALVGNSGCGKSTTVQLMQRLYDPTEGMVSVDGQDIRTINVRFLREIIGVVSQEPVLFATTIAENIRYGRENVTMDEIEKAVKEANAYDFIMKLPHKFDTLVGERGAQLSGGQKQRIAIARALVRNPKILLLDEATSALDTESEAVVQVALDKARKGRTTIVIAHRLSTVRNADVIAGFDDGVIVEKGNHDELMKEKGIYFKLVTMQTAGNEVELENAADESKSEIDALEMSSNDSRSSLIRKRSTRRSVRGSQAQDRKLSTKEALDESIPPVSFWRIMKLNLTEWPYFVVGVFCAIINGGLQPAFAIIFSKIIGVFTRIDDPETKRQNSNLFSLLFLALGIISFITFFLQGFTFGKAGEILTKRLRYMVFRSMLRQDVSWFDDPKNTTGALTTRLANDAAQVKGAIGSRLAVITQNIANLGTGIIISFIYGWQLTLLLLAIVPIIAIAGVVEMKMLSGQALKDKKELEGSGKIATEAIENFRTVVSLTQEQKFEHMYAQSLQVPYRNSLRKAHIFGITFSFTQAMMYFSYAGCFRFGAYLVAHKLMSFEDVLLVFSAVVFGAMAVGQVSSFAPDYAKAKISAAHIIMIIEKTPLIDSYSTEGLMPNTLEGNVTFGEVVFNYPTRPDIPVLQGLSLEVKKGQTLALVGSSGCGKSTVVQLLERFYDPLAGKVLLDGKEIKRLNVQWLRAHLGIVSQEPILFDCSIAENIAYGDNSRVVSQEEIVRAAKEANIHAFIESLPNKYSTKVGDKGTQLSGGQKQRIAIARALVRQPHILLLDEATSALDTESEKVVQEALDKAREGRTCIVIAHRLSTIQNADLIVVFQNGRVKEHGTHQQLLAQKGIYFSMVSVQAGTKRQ
Experiment: P-gp substrate test
Type: in vitro ADME
Conditions: efflux ratio (B→A/A→B) of MDR1-expressing cells compared with parent cells, Transwell monolayer

Some solved cases for reference:
* CCc1cc([C@]23C[C@H]2CN(CC[C@H]2CC[C@H](NC(=O)Cc4cnn(C)n4)CC2)C3)no1 | 1.9
* CCc1cc(C23CC2CN(CC[C@H]2CC[C@H](NC(=O)c4cccc5nn(C)cc45)CC2)C3)no1 (stereo partly shown) | 1.3
* Cc1ncc(OCC(=O)N[C@H]2CC[C@H](CCN3C[C@@H]4C[C@]4(c4cc(C(C)(F)F)on4)C3)CC2)cn1 | 1.9

Next up:
Supply reported P-gp ER ratio belonging to this compound: "CCc1cc([C@]23C[C@H]2CN(CC[C@H]2CC[C@H](NC(=O)Cc4cnc(C)o4)CC2)C3)no1"
2.4

* * *

Target: human recombinant D2 receptor (Homo sapiens (Human))
Sequence (P14416 whole entry): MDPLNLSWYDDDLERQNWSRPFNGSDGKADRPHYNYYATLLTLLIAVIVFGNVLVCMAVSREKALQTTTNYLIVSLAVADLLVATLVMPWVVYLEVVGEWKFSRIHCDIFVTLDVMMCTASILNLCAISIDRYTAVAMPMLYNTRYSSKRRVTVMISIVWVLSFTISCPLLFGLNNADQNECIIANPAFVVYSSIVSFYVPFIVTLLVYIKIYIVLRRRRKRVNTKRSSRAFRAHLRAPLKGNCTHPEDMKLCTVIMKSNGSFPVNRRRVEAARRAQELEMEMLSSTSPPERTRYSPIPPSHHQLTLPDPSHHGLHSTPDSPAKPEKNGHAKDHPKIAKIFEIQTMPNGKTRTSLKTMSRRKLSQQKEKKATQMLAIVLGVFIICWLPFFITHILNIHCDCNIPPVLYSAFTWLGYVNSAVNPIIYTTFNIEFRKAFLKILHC
Assay: Test of binding inhibition for dopamine D2 receptor
Details: Jump-In HEK cell membranes, 1.2 nM [3H]-Methylspiperone, 120 min at 25° C.; read-out: hD2_Ki
Outcome Measure: Ki (nM)
Kindly provide the numeric value in nM only, without the unit symbol.

Some solved cases for reference:
- O=C(N[C@H]1CC[C@H](CCN2CCC(c3ccnn3-c3ccccc3)CC2)CC1)c1cccc2ncccc12: 1100
- Cn1cc(CC(=O)N[C@H]2CC[C@H](CCN3C[C@@H]4C[C@]4(c4cc(C(C)(F)F)on4)C3)CC2)cn1: 270

Supply reported Ki belonging to this compound: "Cc1cc(CC(=O)N[C@H]2CC[C@H](CCN3CCC(c4nocc4C(C)(F)F)CC3)CC2)on1"
350

Supply reported Ki belonging to this compound: "Cc1ncc(OCC(=O)N[C@H]2CC[C@H](CCN3C[C@@H]4C[C@]4(c4cc(C(C)(F)F)on4)C3)CC2)cn1"
330

Supply reported Ki belonging to this compound: "Cc1ncccc1C(=O)N[C@H]1CC[C@H](CCN2C[C@@H]3C[C@]3(c3cc(C(C)(F)F)on3)C2)CC1"
190

Supply reported Ki belonging to this compound: "Cn1cc2c(C(=O)N[C@H]3CC[C@](F)(CCN4CCC(c5nocc5C(C)(F)F)CC4)CC3)cccc2n1"
250

Supply reported Ki belonging to this compound: "Cc1ncc(CC(=O)N[C@H]2CC[C@H](CCN3CCN(c4nocc4C(C)(F)F)CC3)CC2)s1"
88

Supply reported Ki belonging to this compound: Cc1ncc(CC(=O)N[C@H]2CC[C@H](CCN3CCN(c4nocc4C(C)(F)F)C(C)C3)CC2)s1 (stereo partly drawn)
68

* * *

Target: human recombinant D3 receptor (Homo sapiens (Human))
Sequence (P35462 whole entry): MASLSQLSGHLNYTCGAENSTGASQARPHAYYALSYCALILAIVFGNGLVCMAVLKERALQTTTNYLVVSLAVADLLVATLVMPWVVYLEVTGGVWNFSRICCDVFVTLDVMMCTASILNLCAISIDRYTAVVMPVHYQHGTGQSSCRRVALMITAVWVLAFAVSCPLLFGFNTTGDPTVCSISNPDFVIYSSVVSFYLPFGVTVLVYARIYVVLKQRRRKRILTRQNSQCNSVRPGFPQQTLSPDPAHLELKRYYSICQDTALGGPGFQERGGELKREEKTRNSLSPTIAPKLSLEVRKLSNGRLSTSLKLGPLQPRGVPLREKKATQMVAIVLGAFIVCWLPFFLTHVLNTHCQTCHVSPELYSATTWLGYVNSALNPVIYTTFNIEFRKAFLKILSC
Assay: Test of binding inhibition for dopamine D3 receptor
Conditions: Jump-In HEK cell membranes, 2 nM [3H]-Methylspiperone, 120 min at 25° C.; read-out: hD3_Ki
Outcome Measure: pKi
Keep in mind that pKi stands for -log10 of concentration in molar terms.

* CCc1cc(C23CC2CN(CC[C@H]2CC[C@H](NC(=O)c4cccc5nn(C)cc45)CC2)C3)no1 (stereo partly shown) [Compound I-034] | 9.15

Supply reported pKi belonging to this compound: CCc1cc([C@]23C[C@H]2CN(CC[C@H]2CC[C@H](NC(=O)c4ccc(F)c5nn(C)cc45)CC2)C3)no1 [Compound I-050]
9.38

Supply reported pKi belonging to this compound: Cn1cc2c(C(=O)N[C@H]3CC[C@H](CCN4CC5CC5(c5cc(C(F)F)on5)C4)CC3)cccc2n1 (stereo partly shown) [Compound I-032]
9.40

Supply reported pKi belonging to this compound: Cn1cc(OCC(=O)N[C@H]2CC[C@H](CCN3C[C@@H]4C[C@]4(c4cc(C(C)(F)F)on4)C3)CC2)cn1 [Compound I-044]
9.08

Supply reported pKi belonging to this compound: Cc1ncc(CC(=O)N[C@H]2CC[C@H](CCN3C[C@@H]4C[C@]4(c4cc(C(C)(F)F)on4)C3)CC2)o1 [Compound I-041]
9.55

Supply reported pKi belonging to this compound: Cc1ncc(CC(=O)N[C@H]2CC[C@H](CCN3CCC(c4nocc4C(C)(F)F)CC3)CC2)s1 [Compound I-010]
9.19

Supply reported pKi belonging to this compound: CCC(F)(F)c1conc1C1CCN(CC[C@H]2CC[C@H](NC(=O)Cc3nnc(C)s3)CC2)CC1 [Compound I-015]
9.89
